Recorded values, source patent US20240279341A1.

Biological target: T1, human MerTK on M2c-differentiated human macrophages (human, UniProt Q12866 21-999)
T1 sequence: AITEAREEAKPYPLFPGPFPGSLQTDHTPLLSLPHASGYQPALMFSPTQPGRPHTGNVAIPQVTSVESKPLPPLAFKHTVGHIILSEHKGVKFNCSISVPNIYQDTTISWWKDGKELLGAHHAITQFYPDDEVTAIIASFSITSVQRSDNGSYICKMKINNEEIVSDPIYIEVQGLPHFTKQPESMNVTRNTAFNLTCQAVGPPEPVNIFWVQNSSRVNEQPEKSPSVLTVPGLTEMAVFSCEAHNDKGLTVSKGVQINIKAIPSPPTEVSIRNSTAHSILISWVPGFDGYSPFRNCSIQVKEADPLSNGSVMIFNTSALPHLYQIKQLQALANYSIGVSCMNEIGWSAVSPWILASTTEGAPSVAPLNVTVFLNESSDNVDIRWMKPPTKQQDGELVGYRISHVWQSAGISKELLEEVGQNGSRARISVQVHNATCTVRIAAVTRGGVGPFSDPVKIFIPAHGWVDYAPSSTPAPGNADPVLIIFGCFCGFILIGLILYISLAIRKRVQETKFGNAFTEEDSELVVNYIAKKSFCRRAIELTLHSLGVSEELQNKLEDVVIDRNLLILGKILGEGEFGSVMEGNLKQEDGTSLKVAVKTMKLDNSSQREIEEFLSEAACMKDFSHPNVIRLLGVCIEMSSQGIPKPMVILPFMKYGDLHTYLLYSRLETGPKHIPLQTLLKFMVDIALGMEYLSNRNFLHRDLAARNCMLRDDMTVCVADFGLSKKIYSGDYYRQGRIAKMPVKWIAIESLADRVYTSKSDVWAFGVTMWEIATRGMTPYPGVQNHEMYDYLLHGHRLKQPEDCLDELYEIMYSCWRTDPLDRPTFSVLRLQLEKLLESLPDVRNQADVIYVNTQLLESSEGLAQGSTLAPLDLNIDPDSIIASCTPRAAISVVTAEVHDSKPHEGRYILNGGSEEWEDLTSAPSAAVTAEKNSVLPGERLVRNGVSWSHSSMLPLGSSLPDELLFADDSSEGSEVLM
Assay: cell-based or functional assay
Below is a list of entries, each paired with its recorded Average IC50 (nM) in the presence of huGas6 (huGas6-mediated pAKT reducing activity) value.
measurement-type: Average IC50 (nM) in the presence of huGas6 (huGas6-mediated pAKT reducing activity)

binder	unit-of-measure	val
monovalent anti-MerTK antibody MTK-16.2 (antibody, V domains shown) VH: QVQLVQSGSELKKPGASVKVSCKASGYTFTNHGMNWVRQAPGQGLEWMGWINTYTGEPTYADDFKGRFVFSLDTSVSTAYLQISSLKAEDTAVYYCARKGVTAARYFDYWGQGTLVTVSS VL: DIQMTQSPSSLSASVGDRVTITCRASQNVRTAVAWYQQKPGKAPKRLIYLASNRHTGVPSRFSGSGSGTEFTLTISNLQPEDFATYYCLQHWNYPLTFGGGTKLEIK	nM	15.3
bivalent anti-MerTK antibody MTK-16.2 (full IgG) (antibody, V domains shown) VH: QVQLVQSGSELKKPGASVKVSCKASGYTFTNHGMNWVRQAPGQGLEWMGWINTYTGEPTYADDFKGRFVFSLDTSVSTAYLQISSLKAEDTAVYYCARKGVTAARYFDYWGQGTLVTVSS VL: DIQMTQSPSSLSASVGDRVTITCRASQNVRTAVAWYQQKPGKAPKRLIYLASNRHTGVPSRFSGSGSGTEFTLTISNLQPEDFATYYCLQHWNYPLTFGGGTKLEIKR	nM	3.22
bivalent anti-MerTK antibody MTK-33.11 (full IgG) (antibody, V domains shown) VH: QVQLVQSGAEVKKPGASVKVSCKASGYTFTSYWMHWVRQAPGQGLEWIGVIDPSDNYINYNQKFQGRVTMTRDTSTSTVYMELSSLRSEDTAVYYCAREAWTRGYFDYWGQGTLVTVSS VL: DIQMTQSPSSLSASVGDRVTITCQASRSVRNTVAWYQQKPGKAPKLLIYYASNRYTGVPSRFSGSGSGTDFTFTISSLQPEDIATYYCQQDYRSPFTFGQGTKLEIKR	nM	1.25
monovalent anti-MerTK antibody MTK-33.11 (antibody, V domains shown) VH: QVQLVQSGAEVKKPGASVKVSCKASGYTFTSYWMHWVRQAPGQGLEWIGVIDPSDNYINYNQKFQGRVTMTRDTSTSTVYMELSSLRSEDTAVYYCAREAWTRGYFDYWGQGTLVTVSS VL: DIQMTQSPSSLSASVGDRVTITCQASRSVRNTVAWYQQKPGKAPKLLIYYASNRYTGVPSRFSGSGSGTDFTFTISSLQPEDIATYYCQQDYRSPFTFGQGTKLEIK	nM	17.9
